The values you see were collected from ChEMBL document CHEMBL4033706.

biological target: Carbonic anhydrase 9 (Homo sapiens, UniProt Q16790)
reportedEndpoint: Ki (nM)
Provide the reading as a plain figure in nM.

Worked set:
| substanceSmiles | scaleUnit | Ki |
| --- | --- | --- |
| Cc1cccc(C(=O)NC(=[Se])NCCc2ccc(S(N)(=O)=O)cc2)c1 | nM | 146 |
| CC(=O)Oc1ccccc1C(=O)NC(=[Se])Nc1cc(S(N)(=O)=O)ccc1O | nM | 80.8 |

Request - read-out Ki | tested on Carbonic anhydrase 9 (Homo sapiens, UniProt Q16790) | molecule NS(=O)(=O)c1ccc(O)c(NC(=[Se])NC(=O)c2ccc(-c3ccccc3)cc2)c1
69.1

Request - read-out Ki | tested on Carbonic anhydrase 9 (Homo sapiens, UniProt Q16790) | molecule Cc1cccc(C(=O)NC(=[Se])Nc2cccc(S(N)(=O)=O)c2)c1
43.9

Request - read-out Ki | tested on Carbonic anhydrase 9 (Homo sapiens, UniProt Q16790) | molecule NS(=O)(=O)c1ccccc1NC(=[Se])NC(=O)c1ccccc1
284
